Data credit: patent US11713338B2

Tested System: integrin α4β7 (RPMI8866 human cells adhering to MAdCAM-1) (Homo sapiens, UniProt P13612+P26010)
Construct: RMP18866 cells, which express integrin α4β7; host or cells: RPMI8866
Sequence (P13612 34-1032): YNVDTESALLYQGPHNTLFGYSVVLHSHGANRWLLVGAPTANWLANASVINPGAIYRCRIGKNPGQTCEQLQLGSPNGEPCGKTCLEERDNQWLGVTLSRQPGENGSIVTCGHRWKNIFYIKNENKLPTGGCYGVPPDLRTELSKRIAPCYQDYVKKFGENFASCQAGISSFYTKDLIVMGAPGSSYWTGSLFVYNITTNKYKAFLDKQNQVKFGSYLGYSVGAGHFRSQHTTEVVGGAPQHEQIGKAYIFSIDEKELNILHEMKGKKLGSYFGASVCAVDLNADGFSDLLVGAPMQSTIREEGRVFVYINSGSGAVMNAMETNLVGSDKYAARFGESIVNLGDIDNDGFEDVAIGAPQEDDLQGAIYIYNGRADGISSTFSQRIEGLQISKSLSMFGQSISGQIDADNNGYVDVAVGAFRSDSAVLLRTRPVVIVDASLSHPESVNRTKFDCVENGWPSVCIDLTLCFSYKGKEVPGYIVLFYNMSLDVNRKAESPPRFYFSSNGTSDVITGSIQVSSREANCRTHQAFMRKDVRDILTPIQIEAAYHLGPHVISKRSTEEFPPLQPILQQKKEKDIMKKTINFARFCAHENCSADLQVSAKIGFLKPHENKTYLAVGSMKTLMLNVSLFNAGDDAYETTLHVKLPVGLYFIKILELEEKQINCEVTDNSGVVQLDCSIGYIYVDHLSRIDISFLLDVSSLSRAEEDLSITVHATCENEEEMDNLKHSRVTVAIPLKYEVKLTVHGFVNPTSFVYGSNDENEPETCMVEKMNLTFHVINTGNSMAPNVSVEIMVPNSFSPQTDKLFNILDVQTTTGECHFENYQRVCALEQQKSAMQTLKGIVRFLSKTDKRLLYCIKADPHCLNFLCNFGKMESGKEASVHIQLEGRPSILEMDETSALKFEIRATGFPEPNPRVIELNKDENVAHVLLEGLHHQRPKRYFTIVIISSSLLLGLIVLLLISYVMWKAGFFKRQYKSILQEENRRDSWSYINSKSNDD
Sequence (P26010 20-798): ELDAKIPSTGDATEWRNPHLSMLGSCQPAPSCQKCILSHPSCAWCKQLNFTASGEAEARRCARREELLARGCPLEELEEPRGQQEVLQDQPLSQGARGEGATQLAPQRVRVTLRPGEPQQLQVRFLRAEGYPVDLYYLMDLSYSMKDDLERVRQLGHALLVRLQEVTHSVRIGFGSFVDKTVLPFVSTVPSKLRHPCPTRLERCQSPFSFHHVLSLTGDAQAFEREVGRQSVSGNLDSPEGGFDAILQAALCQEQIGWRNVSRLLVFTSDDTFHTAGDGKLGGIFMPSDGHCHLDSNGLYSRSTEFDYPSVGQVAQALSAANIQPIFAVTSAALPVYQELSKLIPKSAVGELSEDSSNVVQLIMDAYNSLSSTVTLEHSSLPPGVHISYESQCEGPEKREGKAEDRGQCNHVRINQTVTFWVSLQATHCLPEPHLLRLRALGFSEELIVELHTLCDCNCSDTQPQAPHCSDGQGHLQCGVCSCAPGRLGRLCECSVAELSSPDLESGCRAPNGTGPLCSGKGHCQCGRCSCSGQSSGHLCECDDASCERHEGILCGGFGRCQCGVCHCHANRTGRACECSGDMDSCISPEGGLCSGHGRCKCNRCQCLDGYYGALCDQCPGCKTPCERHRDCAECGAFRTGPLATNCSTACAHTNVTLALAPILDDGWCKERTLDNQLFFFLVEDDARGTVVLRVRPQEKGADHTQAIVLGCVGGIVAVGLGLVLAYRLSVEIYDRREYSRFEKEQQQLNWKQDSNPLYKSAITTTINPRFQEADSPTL
Test: Integrin α4β7-MAdCAM cell adhesion assay (RPMI8866 cells)
Assay type: cell-based
Experimental Context: RPMI8866 cells adhering to MAdCAM; read-out: RPMI8866 Adhesion α4β7/MAdCAM IC50
pIC50: −log10 of the molar value.

Query Smiles | pIC50
CC(C)C[C@@H]1NC(=O)c2ccc(-c3ccc(N4CCN(C(=O)c5cc(-c6ccccc6)c(C(=O)N6CCN(c7ccc(-c8ccc9cc8CNC(=O)[C@@H]8CCCN8[C@H](C(=O)NC(C)(C)C)[C@H](C)NC(=O)[C@H]([C@@H](C)O)NC(=O)[C@H](CC(=O)O)NC(=O)[C@H](CC(C)C)NC9=O)cc7)CC6)cc5-c5ccccc5)CC4)cc3)c(c2)CNC(=O)[C@@H]2CCCN2[C@H](C(=O)NC(C)(C)C)[C@H](C)NC(=O)[C@H]([C@@H](C)O)NC(=O)[C@H](CC(=O)O)NC1=O | 8.30
